B1: PSD2 (parent)
chain: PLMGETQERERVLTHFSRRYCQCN

variants of: B1; test: protein stability index of a GFP-peptide fusion (GPS, HEK-293T) (PSI 1-6); higher = more stable; settings: c terminus: a fixed tail appended;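 further: lentivirally expressed fusions sorted by FACS into six bins by GFP to DsRed ratio, PSI derived from sequencing read proportions per bin multiplied by bin number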
property name: protein stability index
Just the number.

M3D    3.69
L13C    4.49
H15C    2.9
N24D    3.23
H15E    4.15
Y20N    3.81
G4Y    2.06
F16R    2.21

Challenge: Quick check: protein stability index of E5Q ?
Response given: 2.07

Challenge: And then N24I , what is it?
Response given: 3.07

Challenge: And then Q22M , what is it?
Response given: 2.1

Challenge: And then E8H , what is it?
Response given: 1.97

Challenge: And then N24F , what is it?
Response given: 2.79

Challenge: And then R19V , what is it?
Response given: 3.09

Challenge: And then F16N , what is it?
Response given: 3.58

Challenge: And then R11H , what is it?
Response given: 3.73

Challenge: And then E8K , what is it?
Response given: 2.12

Challenge: And then F16V , what is it?
Response given: 3

Challenge: And then R19S , what is it?
Response given: 3.28

Challenge: And then C21D , what is it?
Response given: 4.01

Challenge: And then R11Q , what is it?
Response given: 3.46

Challenge: And then R18S , what is it?
Response given: 3.54
